conditions: in 2-methoxyethanol, 298.15 K
Quantity Kind: solubility (mole fraction)

If you can, please state the reported solubility (mole fraction) value of `COc1ccc2[nH]cc(CCNC(C)=O)c2c1` . 0.115

* * *

conditions: in DMF, 313.15 K
Quantity Kind: solubility (mole fraction)
Number, no unit, nothing else.

If you can, please state the reported solubility (mole fraction) value of `COc1ccc2[nH]cc(CCNC(C)=O)c2c1` . 0.285

* * *

details: in 2-ethoxyethanol, 288.15 K
Quantity Kind: solubility (mole fraction)
Number, no unit, nothing else.

If you can, please state the reported solubility (mole fraction) value of `COc1ccc2[nH]cc(CCNC(C)=O)c2c1` . 0.0809

* * *

settings: in 2-ethoxyethanol, 293.15 K
Quantity Kind: solubility (mole fraction)
Number, no unit, nothing else.

If you can, please state the reported solubility (mole fraction) value of `COc1ccc2[nH]cc(CCNC(C)=O)c2c1` . 0.0919

* * *

conditions: in 2-methoxyethanol, 278.15 K
Quantity Kind: solubility (mole fraction)
Number, no unit, nothing else.

If you can, please state the reported solubility (mole fraction) value of `COc1ccc2[nH]cc(CCNC(C)=O)c2c1` . 0.0729

* * *

conditions: in 2-methoxyethanol, 318.15 K
Quantity Kind: solubility (mole fraction)
Number, no unit, nothing else.

If you can, please state the reported solubility (mole fraction) value of `COc1ccc2[nH]cc(CCNC(C)=O)c2c1` . 0.173

* * *

conditions: in 2-ethoxyethanol, 303.15 K
Quantity Kind: solubility (mole fraction)
Number, no unit, nothing else.

If you can, please state the reported solubility (mole fraction) value of `COc1ccc2[nH]cc(CCNC(C)=O)c2c1` . 0.113

* * *

conditions: in 2-ethoxyethanol, 313.15 K
Quantity Kind: solubility (mole fraction)
Number, no unit, nothing else.

If you can, please state the reported solubility (mole fraction) value of `COc1ccc2[nH]cc(CCNC(C)=O)c2c1` . 0.138

* * *

settings: in 2-methoxyethanol, 293.15 K
Quantity Kind: solubility (mole fraction)
Number, no unit, nothing else.

If you can, please state the reported solubility (mole fraction) value of `COc1ccc2[nH]cc(CCNC(C)=O)c2c1` . 0.103

* * *

conditions: in 2-ethoxyethanol, 323.15 K
Quantity Kind: solubility (mole fraction)

If you can, please state the reported solubility (mole fraction) value of `COc1ccc2[nH]cc(CCNC(C)=O)c2c1` . 0.168

* * *

details: in 2-methoxyethanol, 308.15 K
Quantity Kind: solubility (mole fraction)
Number, no unit, nothing else.

If you can, please state the reported solubility (mole fraction) value of `COc1ccc2[nH]cc(CCNC(C)=O)c2c1` . 0.142

* * *

settings: in DMF, 308.15 K
Quantity Kind: solubility (mole fraction)
Number, no unit, nothing else.

If you can, please state the reported solubility (mole fraction) value of `COc1ccc2[nH]cc(CCNC(C)=O)c2c1` . 0.267

* * *

conditions: in DMF, 298.15 K
Quantity Kind: solubility (mole fraction)
Number, no unit, nothing else.

If you can, please state the reported solubility (mole fraction) value of `COc1ccc2[nH]cc(CCNC(C)=O)c2c1` . 0.235

* * *

settings: in 2-methoxyethanol, 303.15 K
Quantity Kind: solubility (mole fraction)
Number, no unit, nothing else.

If you can, please state the reported solubility (mole fraction) value of `COc1ccc2[nH]cc(CCNC(C)=O)c2c1` . 0.129

* * *

settings: in 2-ethoxyethanol, 298.15 K
Quantity Kind: solubility (mole fraction)

If you can, please state the reported solubility (mole fraction) value of `COc1ccc2[nH]cc(CCNC(C)=O)c2c1` . 0.103

* * *

conditions: in DMF, 283.15 K
Quantity Kind: solubility (mole fraction)
Number, no unit, nothing else.

If you can, please state the reported solubility (mole fraction) value of `COc1ccc2[nH]cc(CCNC(C)=O)c2c1` . 0.191

* * *

settings: in 2-ethoxyethanol, 318.15 K
Quantity Kind: solubility (mole fraction)

If you can, please state the reported solubility (mole fraction) value of `COc1ccc2[nH]cc(CCNC(C)=O)c2c1` . 0.152

* * *

conditions: in DMF, 278.15 K
Quantity Kind: solubility (mole fraction)
Number, no unit, nothing else.

If you can, please state the reported solubility (mole fraction) value of `COc1ccc2[nH]cc(CCNC(C)=O)c2c1` . 0.177

* * *

conditions: in 2-ethoxyethanol, 283.15 K
Quantity Kind: solubility (mole fraction)
Number, no unit, nothing else.

If you can, please state the reported solubility (mole fraction) value of `COc1ccc2[nH]cc(CCNC(C)=O)c2c1` . 0.0729

* * *

details: in DMF, 293.15 K
Quantity Kind: solubility (mole fraction)

If you can, please state the reported solubility (mole fraction) value of `COc1ccc2[nH]cc(CCNC(C)=O)c2c1` . 0.221

* * *

settings: in DMF, 303.15 K
Quantity Kind: solubility (mole fraction)

If you can, please state the reported solubility (mole fraction) value of `COc1ccc2[nH]cc(CCNC(C)=O)c2c1` . 0.251

* * *

conditions: in 2-methoxyethanol, 313.15 K
Quantity Kind: solubility (mole fraction)
Number, no unit, nothing else.

If you can, please state the reported solubility (mole fraction) value of `COc1ccc2[nH]cc(CCNC(C)=O)c2c1` . 0.159
